target: NF-kB p65 (RelA) (UniProt Q04206 Q04206:1-551); experiment: competition; primary screen 3.06; conditions: protein: extract; tags: TPA and CI-stimulated Jurkat nuclear extract, Active Motif TransAM kit
Sequence (Q04206 whole entry, one chain of several): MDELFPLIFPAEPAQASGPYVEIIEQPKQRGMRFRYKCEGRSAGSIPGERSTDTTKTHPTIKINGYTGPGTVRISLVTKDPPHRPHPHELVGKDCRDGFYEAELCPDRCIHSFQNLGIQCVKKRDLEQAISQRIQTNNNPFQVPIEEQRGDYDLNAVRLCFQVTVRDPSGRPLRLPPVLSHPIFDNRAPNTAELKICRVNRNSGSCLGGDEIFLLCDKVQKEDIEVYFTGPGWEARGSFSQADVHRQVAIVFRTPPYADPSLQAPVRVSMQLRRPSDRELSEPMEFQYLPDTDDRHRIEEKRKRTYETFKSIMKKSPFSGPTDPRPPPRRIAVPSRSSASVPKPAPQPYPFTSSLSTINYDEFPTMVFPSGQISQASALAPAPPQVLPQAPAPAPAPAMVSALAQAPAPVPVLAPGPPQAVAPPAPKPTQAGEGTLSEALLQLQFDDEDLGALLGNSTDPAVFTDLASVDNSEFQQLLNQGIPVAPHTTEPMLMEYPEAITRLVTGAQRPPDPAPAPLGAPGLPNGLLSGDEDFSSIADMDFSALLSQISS
Measurement Type: pIC50
Answers are plain numbers, as −log10 of the molar value.

Given item SODN91 (dsDNA, PS all bonds, both strands) DNA 1: GTAAAATGGGATTTCCCGAG DNA 2: CTCGGGAAATCCCATTTTAC , the value recorded as its pIC50 is 8.59
